Source listed as paper PMC12143597.

Please provide measured Kd for the entries that follow.
biological target: hTOP1 catalytically inactive variant (Homo sapiens, UniProt P11387 1-765, Y723F); assay: fluorescence anisotropy; 20 mM Tris pH 8, 66 mM NaCl, 1 mM DTT, 2% glycerol, 0.5 nM DNA, 0-60 nM TOP1, 10 min at 37 C; errors are SEM of 3-5 experiments; conditions: protein: recombinant; tags: N-terminal GST tag removed by 3C protease; label: 5'-FAM on strand 1; blunt
Sequence (P11387 whole entry Y723F): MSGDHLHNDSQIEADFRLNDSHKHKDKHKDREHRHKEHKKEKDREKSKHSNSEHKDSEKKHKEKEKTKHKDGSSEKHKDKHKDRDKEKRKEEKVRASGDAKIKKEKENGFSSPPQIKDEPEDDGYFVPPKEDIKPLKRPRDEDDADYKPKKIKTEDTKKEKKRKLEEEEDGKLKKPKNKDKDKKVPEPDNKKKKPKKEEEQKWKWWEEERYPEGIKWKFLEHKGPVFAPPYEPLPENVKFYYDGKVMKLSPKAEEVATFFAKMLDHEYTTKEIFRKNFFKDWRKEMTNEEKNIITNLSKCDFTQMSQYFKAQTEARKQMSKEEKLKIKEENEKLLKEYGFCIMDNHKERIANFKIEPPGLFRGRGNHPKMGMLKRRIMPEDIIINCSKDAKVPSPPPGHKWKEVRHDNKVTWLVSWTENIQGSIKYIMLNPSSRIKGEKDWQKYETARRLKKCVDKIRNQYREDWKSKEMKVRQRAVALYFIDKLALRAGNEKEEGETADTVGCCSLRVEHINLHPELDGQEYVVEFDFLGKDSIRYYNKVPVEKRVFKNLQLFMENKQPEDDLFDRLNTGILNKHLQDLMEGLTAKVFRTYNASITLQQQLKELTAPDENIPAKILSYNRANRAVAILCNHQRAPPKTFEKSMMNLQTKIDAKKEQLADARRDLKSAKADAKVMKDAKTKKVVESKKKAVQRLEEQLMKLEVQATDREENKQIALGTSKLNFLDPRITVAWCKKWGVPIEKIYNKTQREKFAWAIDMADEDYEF
Report the value in nM with no unit label.

Enquiry: Name the reported Kd value associated with the binder Substrate D (rG upstream of cleavage site) (dsDNA, single ribonucleotide rG at position 16 of strand 1; all else DNA) DNA 1: ACTCGTCACGAGAGAGATGCCACGGTATTTCAAA DNA 2: TTTGAAATACCGTGGCATCTCTCTCGTGACGAGT
Return: 1.2

Enquiry: What do you have for Substrate C (dsDNA) DNA 1: ACTCGTCACGAGAGAGATGCCACGGTATTTCAAA DNA 2: TTTGAAATACCGTGGCATCTCTCTCGTGACGAGT ?
Return: 1.8

Enquiry: What do you have for Substrate A (dsDNA) DNA 1: AGCGTTGAAGATATGTGGCAAAACCTTTGT DNA 2: ACAAAGGTTTTGCCACATATCTTCAACGCT ?
Return: 0.97
